- PROTOCOL TEXT: Human HepG2 cell viability assay in 384 well format
- Type: toxicity, cell-based
- Design: dose 125 nL, time 70.5 hour; concentration not given beside the values
- ASSAY CONTEXT: HepG2 cells, read-out: Inhibition
READOUT NAME: cytotoxicity at 70.5 h
Your reply should be a number followed by the unit it is expressed in.

Please review the entries below; each comes with its answer.
- MOLECULE: "Cc1ccc(CN2CCC[C@@H]3CN(C(=O)c4ccco4)C[C@@H]32)o1"
  cytotoxicity at 70.5 h: "-9.58%"
- MOLECULE: "CC(C)CC(=O)N1CCCn2cnc(CNS(C)(=O)=O)c2C1"
  cytotoxicity at 70.5 h: "2.43%"

Kindly review the next molecule as well.
Form: molecule = Cc1ccc(CN2Cc3nnn(C)c3C(COCC3CC3)C2)o1 (stereo not drawn) ; cytotoxicity at 70.5 h = -5.52%
